tested on: Nuclear hormone receptor DAF-12 (Heterodera glycines), GAL4 fusion; assay: H. glycines DAF-12 receptor agonists, primary screen, cell-based, luminescence, HEK293, GAL4 fusion, UAS-luciferase (AID 687014); conditions: HEK293 GAL4-hgDAF12 UAS-luciferase reporter, agonist luminescence; at 6.8 µM; hits give high values; normalized to butyrate control;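 note: 0% = DMSO wells and 100% = sodium butyrate wells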
Hit rate of the full screen: of about 370,000 compounds, about 6,800 (1.8%) were called active. This excerpt belongs to a sample that is enriched for actives.
Attribute Measured: activation (%)
Give the value, in units of %, as a plain number.

Answered examples (2):
>>> print(df.to_string())
                                   compound                             tested_system  meas_value
0  O=C1NC[C@H](CCCCN2C[C@H](Cc3ccccc3)N(Cc3ccccc3)C(=O)C2=O)N(CCc2ccc(O)cc2)C1=O  Nuclear hormone receptor DAF-12 (Heterodera glycines), GAL4 fusion        0.18
1            O=Cc1cn(-c2ccccc2)nc1-c1ccccn1  Nuclear hormone receptor DAF-12 (Heterodera glycines), GAL4 fusion       -0.68

May I ask what activation has been recorded for COC(=O)C1=C(C)N(Cc2cccc(C(F)(F)F)c2)C(=NCc2ccccc2)NC1c1ccccc1C(F)(F)F (centres undefined) ?
-1.64

* * *

test system: Nuclear hormone receptor DAF-12 (Heterodera glycines), GAL4 fusion; assay: H. glycines DAF-12 receptor agonists, primary screen, cell-based, luminescence, HEK293, GAL4 fusion, UAS-luciferase (AID 687014); details: HEK293 GAL4-hgDAF12 UAS-luciferase reporter, agonist luminescence; at 6.8 µM; normalized to butyrate control;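 note: 0% = DMSO wells and 100% = sodium butyrate wells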
Among all 370,000 compounds or so, about 6,800 (1.8%) were called active.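 Rule for the calls: active = activation above a cutoff set at the mean of all screened compounds plus 3 SD (cut at about 10% in these data); inactive = the rest.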 For the sample, actives were picked, then their nearest neighbours and some compounds at random.
Hello, when you answer, please use one of the following outcomes: active, inactive

Example entries begin here.
>>> df
                                   molecule  group_label
0        O=C(O)c1c(NC(=O)N2CCCC2)sc2c1CCCC2     inactive
1                 COc1ccc(-c2cn3ccsc3n2)cc1       active
2  CCCNC(=O)C1CC(=O)N(c2ccc(OCC(=O)Nc3cccc(C)c3C)cc2)C1 (stereo not drawn)     inactive
3  CC(C(=O)N=Nc1c(O)n(C)c2ccc(Br)cc12)n1cnc2ccccc2c1=O (stereo not drawn)     inactive
4    CC(C)(C)C(=O)Nc1ccc(-c2cn3cccnc3n2)cc1     inactive

Per the assay record, what outcome was assigned to Cc1ccc(NC(=O)c2ccc(Cl)nc2)cc1S(=O)(=O)N1CCOCC1 ?
inactive

Assay result, entry CN1CCN(c2ccc(NC(=O)c3ccc4c(c3)OCCO4)cc2Cl)CC1 — outcome?
active

Given NC(=O)c1c(NC(=O)c2ccccc2)sc2c1CCCC2 , state the outcome it received in this test.
active

* * *

tested on: Nuclear hormone receptor DAF-12 (Heterodera glycines), GAL4 fusion; experiment: H. glycines DAF-12 receptor agonists, primary screen, cell-based, luminescence, HEK293, GAL4 fusion, UAS-luciferase (AID 687014); conditions: HEK293 GAL4-hgDAF12 UAS-luciferase reporter, agonist luminescence; at 6.8 µM; normalized to butyrate control;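 note: 0% = DMSO wells and 100% = sodium butyrate wells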
Out of some 370,000 compounds screened, about 6,800 (1.8%) were called active.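 The calls were made as follows: active = activation above a cutoff set at the mean of all screened compounds plus 3 SD (cut at about 10% in these data); inactive = the rest.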 Only a selection was taken, and actives are over-represented in it overall.
The reply should name one outcome from active, inactive

Solved cases below.
>>> df
                                   compound  group_label
0      CN(C)c1ccnc2sc(C(=O)c3ccccc3)c(N)c12       active
1  CC1CCN(C(=O)c2ccc3c(=O)n4c(nc3c2)CCCCC4)CC1     inactive
2  Cc1ccc(Cn2cc(COC(=O)N(C)Cc3ccccc3)nn2)cc1     inactive
3  CC(=O)c1c(Nc2ccccc2)sc(C(=O)c2ccccc2)c1C     inactive

What classification did CCCCn1c(N)c(N(CC(C)C)C(=O)CSc2ccc([N+](=O)[O-])cc2)c(=O)[nH]c1=O end up with in this test?
inactive

Hello, I am checking results. What call was entered for Cc1ccc2nc(-c3ccc(NC(=O)CN(C)S(=O)(=O)c4ccccc4)cc3)sc2c1 ?
active

Check the results log: what was the call for CC(C)N1CCCCC(NC(=O)C(C)(C)C)C1=O (configuration not stated) ?
inactive

Record lookup: outcome of this test for COc1ccc(-c2ccc3c(n2)CCCN3S(=O)(=O)c2ccc(C)cc2)cc1 ?
inactive
